# TEST_SYSTEM: Recombinant human CYP51A1 (lanosterol-14a-demethylase) (Homo sapiens (Human), UniProt Q16850)
# Sequence (Q16850 whole entry): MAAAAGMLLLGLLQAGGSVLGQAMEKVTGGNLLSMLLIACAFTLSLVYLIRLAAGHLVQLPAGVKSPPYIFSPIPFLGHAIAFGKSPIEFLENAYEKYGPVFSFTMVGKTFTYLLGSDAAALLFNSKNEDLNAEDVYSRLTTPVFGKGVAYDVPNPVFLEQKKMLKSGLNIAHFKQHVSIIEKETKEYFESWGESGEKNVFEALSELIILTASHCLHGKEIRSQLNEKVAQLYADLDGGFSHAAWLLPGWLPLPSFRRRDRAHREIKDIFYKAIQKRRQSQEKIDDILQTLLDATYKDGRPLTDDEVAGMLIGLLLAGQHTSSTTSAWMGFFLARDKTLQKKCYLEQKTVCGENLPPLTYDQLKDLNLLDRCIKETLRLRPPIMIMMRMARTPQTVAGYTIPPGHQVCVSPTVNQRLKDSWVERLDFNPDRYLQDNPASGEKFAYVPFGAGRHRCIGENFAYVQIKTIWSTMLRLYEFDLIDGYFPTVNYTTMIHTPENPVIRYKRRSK
# TEST_PROTOCOL: Inhibition of CYP51A1, fluorescent substrate BOMCC
# DETAILS: recombinant human CYP51A1 coexpressed with CYP reductase in bacterial membranes, 8-point concentration-response, read-out: CYP51 IC50
TEST_READOUT: IC50

Asked: Quickly give me recorded IC50 for O=C(Cc1ccc(C(F)(F)F)nc1)N(CC1CCC1)CC(O)c1cccnn1 (stereo not shown)
Given back: 100 to 1000 nM

Asked: Quickly give me recorded IC50 for CCCN(CC(O)c1cccnn1)C(=O)Cc1ccc(Cl)c(Cl)c1 (single isomer, unassigned) [compound 35]
Given back: 100 to 1000 nM

Asked: Quickly give me recorded IC50 for "CC1(CN(C[C@@H](O)c2cccnc2)C(=O)Cc2ccc(C(F)(F)F)nc2)CC1"
Given back: ≤ 100 nM

Asked: Quickly give me recorded IC50 for "O=C(Cc1ccc(C(F)(F)F)nc1)N(C[C@@H](O)c1cccnc1)C1COC1"
Given back: 100 to 1000 nM

The origin of these recorded values is patent US20230339890A1.
